Target: MTP (Homo sapiens)
Sequence (P55157 19-894, species assumed): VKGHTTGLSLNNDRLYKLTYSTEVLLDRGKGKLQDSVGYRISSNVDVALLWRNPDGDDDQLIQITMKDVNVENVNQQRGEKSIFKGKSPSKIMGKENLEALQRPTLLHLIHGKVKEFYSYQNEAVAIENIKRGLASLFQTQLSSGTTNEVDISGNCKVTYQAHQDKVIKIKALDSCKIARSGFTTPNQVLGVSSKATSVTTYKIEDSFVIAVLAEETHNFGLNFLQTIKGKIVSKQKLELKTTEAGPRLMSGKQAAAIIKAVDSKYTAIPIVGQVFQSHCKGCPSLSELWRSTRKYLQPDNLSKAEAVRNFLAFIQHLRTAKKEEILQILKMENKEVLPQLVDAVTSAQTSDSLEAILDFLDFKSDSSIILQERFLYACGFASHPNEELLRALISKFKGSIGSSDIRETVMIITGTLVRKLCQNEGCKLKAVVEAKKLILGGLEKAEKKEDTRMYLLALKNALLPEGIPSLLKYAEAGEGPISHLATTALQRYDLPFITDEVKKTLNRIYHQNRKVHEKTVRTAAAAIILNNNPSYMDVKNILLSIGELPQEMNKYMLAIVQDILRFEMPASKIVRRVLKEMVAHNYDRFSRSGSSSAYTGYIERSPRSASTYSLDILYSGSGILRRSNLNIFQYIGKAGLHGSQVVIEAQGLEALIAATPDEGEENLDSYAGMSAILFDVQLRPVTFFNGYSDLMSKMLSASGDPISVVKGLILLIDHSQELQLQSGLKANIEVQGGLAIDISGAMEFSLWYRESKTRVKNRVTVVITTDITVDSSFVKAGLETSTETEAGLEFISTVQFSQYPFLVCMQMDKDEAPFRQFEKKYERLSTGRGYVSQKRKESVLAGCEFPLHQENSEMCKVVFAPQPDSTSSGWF
Sequence (P07237 18-508 partner, species assumed): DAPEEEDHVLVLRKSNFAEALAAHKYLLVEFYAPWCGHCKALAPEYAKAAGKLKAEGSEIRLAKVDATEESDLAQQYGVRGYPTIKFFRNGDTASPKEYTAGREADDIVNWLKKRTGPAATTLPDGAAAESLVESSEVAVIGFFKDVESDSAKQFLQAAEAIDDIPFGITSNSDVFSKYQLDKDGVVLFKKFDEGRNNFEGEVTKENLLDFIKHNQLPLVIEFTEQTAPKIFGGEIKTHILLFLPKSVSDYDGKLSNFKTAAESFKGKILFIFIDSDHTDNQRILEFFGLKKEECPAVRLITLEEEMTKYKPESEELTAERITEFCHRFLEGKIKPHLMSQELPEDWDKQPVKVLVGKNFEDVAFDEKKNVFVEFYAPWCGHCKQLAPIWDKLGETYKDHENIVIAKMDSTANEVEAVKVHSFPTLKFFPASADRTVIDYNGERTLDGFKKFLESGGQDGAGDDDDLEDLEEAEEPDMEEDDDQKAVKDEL
Test: MTP assay (triglyceride transfer from donor to acceptor vesicles)
Assay type: biochemical
Conditions: MTP activity, percent triglyceride transfer, 37° C.; read-out: pIC50 values (= −log IC50 value) (converted)
This section presents compounds with their documented IC50 values.
Reply with just the number (in nM).

// worked examples, IC50 included
| compound | unit_string | IC50 |
| --- | --- | --- |
| CCOC(=O)[C@H](NC(=O)CC1CCN(c2ccc(NC(=O)c3ccccc3-c3ccc(C(F)(F)F)cc3)cc2)CC1)c1ccccc1 [Compound 21] | nM | 3.37 |
| CCOC(=O)[C@H](Cc1ccc(O)cc1)NC(=O)CC1CCN(c2ccc(NC(=O)c3ccccc3-c3ccc(C(F)(F)F)cc3)cc2)CC1 [Compound 31] | nM | 81.1 |
| CCNC(=O)[C@H](C)NC(=O)CC1CCN(c2ccc(NC(=O)c3cccc(C)c3-c3ccc(C(F)(F)F)cc3)cc2)CC1 [Compound 49] | nM | 9.1 |
| CCOC(=O)[C@H](Cc1ccccc1)NC(=O)CC1CCN(c2ccc(NC(=O)c3ccccc3-c3ccc(C(F)(F)F)cc3)cc2)CC1 [Compound 24] | nM | 76.7 |

Turning to the following compound.
// query So what's the measured IC50 for this one? CCOC(=O)[C@H](NC(=O)CC1CCN(c2ccc(NC(=O)c3ccccc3-c3ccc(C(F)(F)F)cc3)cc2)CC1)C(C)C [Compound 20]
// result 6.37

----------
Molecular target: MTP (Homo sapiens)
Assay: MTP assay (triglyceride transfer from donor to acceptor vesicles)
Type: biochemical
Settings: MTP activity, percent triglyceride transfer, 37° C.; read-out: pIC50 values (= −log IC50 value) (converted)
test_readout: IC50 (nM)
Reply with just the number (in nM).

// worked examples, IC50 included
| compound | assay_system | value_reported |
| --- | --- | --- |
| COC(=O)CCC(NC(=O)CC1CCN(c2ccc(NC(=O)c3cccc(C)c3-c3ccc(C(F)(F)F)cc3)cc2)CC1)C(=O)OC (stereo not drawn) [Compound 54] | MTP (Homo sapiens) | 3.11 |
| CCOC(=O)[C@H](C)NC(=O)CC1CCN(c2ccc(N(C)C(=O)c3cccc(C)c3-c3ccc(C(F)(F)F)cc3)cn2)CC1 [Compound 50] | MTP (Homo sapiens) | 10.4 |

// query So what's the measured IC50 for this one? CCOC(=O)CC[C@H](NC(=O)CC1CCN(c2ccc(NC(=O)c3ccccc3-c3ccc(C(F)(F)F)cc3)cc2)CC1)C(=O)OCC [Compound 34]
// result 12.1

----------
Target: MTP (Homo sapiens)
Assay: MTP assay (triglyceride transfer from donor to acceptor vesicles)
Format: biochemical
Details: MTP activity, percent triglyceride transfer, 37° C.; read-out: pIC50 values (= −log IC50 value) (converted)
Mark T only for IC50 values smaller than 0.02 µM; exact matches and larger values are F.

// query Does the reported IC50 of the following compound sit strictly below 0.02 µM? "CCOC(=O)[C@@H]1CCCN1C(=O)CC1CCN(c2ccc(NC(=O)c3ccccc3-c3ccc(C(F)(F)F)cc3)cc2)CC1"
// result F

// query Does the reported IC50 of the following compound sit strictly below 0.02 µM? "CCOC(=O)[C@@H]1CCCN(C(=O)CC2CCN(c3ccc(NC(=O)c4ccccc4-c4ccc(C(F)(F)F)cc4)cc3)CC2)C1"
// result F

// query Does the reported IC50 of the following compound sit strictly below 0.02 µM? "CCOC(=O)[C@@H]1C[C@@H](O)CN1C(=O)CC1CCN(c2ccc(NC(=O)c3ccccc3-c3ccc(C(F)(F)F)cc3)cc2)CC1"
// result F

// query Does the reported IC50 of the following compound sit strictly below 0.02 µM? "CCOC(=O)C[C@H](NC(=O)CC1CCN(c2ccc(NC(=O)c3ccccc3-c3ccc(C(F)(F)F)cc3)cc2)CC1)C(=O)OCC"
// result F

// query Does the reported IC50 of the following compound sit strictly below 0.02 µM? "CCOC(=O)[C@H](CC(C)C)NC(=O)CC1CCN(c2ccc(NC(=O)c3ccccc3-c3ccc(C(F)(F)F)cc3)cc2)CC1"
// result F

// query Does the reported IC50 of the following compound sit strictly below 0.02 µM? COC(=O)C(NC(=O)CC1CCN(c2ccc(NC(=O)c3ccccc3-c3ccc(C(F)(F)F)cc3)cc2)CC1)C(C)C (stereo not shown)
// result F

// query Does the reported IC50 of the following compound sit strictly below 0.02 µM? "COC(=O)[C@H](Cc1c[nH]c2ccccc12)NC(=O)CC1CCN(c2ccc(NC(=O)c3cccc(C)c3-c3ccc(C(F)(F)F)cc3)cc2)CC1"
// result T

// query Does the reported IC50 of the following compound sit strictly below 0.02 µM? "CCOC(=O)[C@H](C)NC(=O)CC1CCN(c2ccc(NC(=O)c3ccccc3-c3ccc(C(F)(F)F)cc3)cc2)CC1"
// result T

// query Does the reported IC50 of the following compound sit strictly below 0.02 µM? "CCOC(=O)[C@H]1CCCN(C(=O)CC2CCN(c3ccc(NC(=O)c4ccccc4-c4ccc(C(F)(F)F)cc4)cc3)CC2)C1"
// result F

// query Does the reported IC50 of the following compound sit strictly below 0.02 µM? "CCOC(=O)[C@H]1CCCN1C(=O)CC1CCN(c2ccc(NC(=O)c3ccccc3-c3ccc(C(F)(F)F)cc3)cc2)CC1"
// result F

// query Does the reported IC50 of the following compound sit strictly below 0.02 µM? "CCOC(=O)C(C)(C)NC(=O)CC1CCN(c2ccc(NC(=O)c3cccc(C)c3-c3ccc(C(F)(F)F)cc3)cc2)CC1"
// result T

// query Does the reported IC50 of the following compound sit strictly below 0.02 µM? "COC(=O)[C@H]1CCCCN1C(=O)CC1CCN(c2ccc(NC(=O)c3ccccc3-c3ccc(C(F)(F)F)cc3)cc2)CC1"
// result F
